assay: rescue of polyQ-huntingtin neuronal dysfunction in worms, whole organism, C. elegans mechanosensory neurons, N-terminal huntingtin (AID 1599); conditions: touch response, stronger effect = higher value
Entries with a potency or affinity are not part of this list.
Overview of reported rescue above control across a group of compounds:
Give the figure only, with no unit attached.

C=C[C@H]1CN2CC[C@H]1C[C@@H]2[C@H](O)c1ccnc2ccccc12 | 3.43
CC[C@@H]1[C@@H](O)N2C3C[C@H]1C1C(O)[C@]4(C[C@@H]12)c1ccccc1N(C)[C@@H]34 (stereo not given in full) | -2.66
C[N+](C)(C)CC(=O)[O-] | 5.21
CC(N)Cc1ccc2c(c1)OCO2 (stereo not given) | -3.14
CO[C@H]1[C@H](O)[C@H](O[C@H]2CC[C@]3(C)C4CC[C@]5(C)C(C6=CC(=O)OC6)CC[C@]5(O)C4CC[C@@H]3C2)O[C@@H](C)[C@@H]1O (stereo not given in full) | -1.89
CN1CC(CNC(=O)OCc2ccccc2)CC2c3cccc4c3c(cn4C)CC21 (stereo not given) | 11.5

// next item, rescue above control requested
Lab book: rescue above control of CCCCCCCCCCCCCCCC[N+](C)(C)C noted as 0

----------
Overview of reported remaining activity across a group of molecules:
test system: Aerobactin synthetase IucA (Klebsiella pneumoniae, hypervirulent); test: IucA enzyme inhibition, biochemical, LOPAC library, absorbance readout (AID 1346212); conditions: IucA enzyme assay, absorbance (OD) readout; stronger effect = lower value;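 tested at 8 µM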;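 note: 100% = no compound wells and 0% = no enzyme wells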
Lab book: enter the figure in %, no units written.

In the examples that follow, each entry is paired with its recorded remaining activity.
O=C(O)c1cc(=O)c2ccc(Cl)cc2[nH]1 | 85.9
CNCCC(Oc1ccccc1C)c1ccccc1 (stereo not given) | 102
C=CC[C@H](N)C(=O)O | 95.7
COc1cc(C(O)CO)ccc1OS(=O)(=O)O (stereo not given) | 99.3
CCCc1c(OCCCOc2ccc(OCC(=O)O)cc2)ccc(C(C)=O)c1O | 101

// next item, remaining activity requested
Entry CCN(CCCl)Cc1ccccc1Br : remaining activity on Aerobactin synthetase IucA (Klebsiella pneumoniae, hypervirulent) = 111

----------
target: L-lactate dehydrogenase (Plasmodium falciparum (isolate CDC / Honduras)) (UniProt Q27743); assay: PfLDH activity inhibition – cell lysate, 3D7 strain, counter-screen for P. falciparum growth inhibition project (AID 2304);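 note: 0% = vehicle and 100% = reference inhibitor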; settings: P. falciparum 3D7 crude extract, LDH APAD/NBT absorbance; at 2 µM; stronger effect = higher value
Sequence (Q27743 whole entry, looked up): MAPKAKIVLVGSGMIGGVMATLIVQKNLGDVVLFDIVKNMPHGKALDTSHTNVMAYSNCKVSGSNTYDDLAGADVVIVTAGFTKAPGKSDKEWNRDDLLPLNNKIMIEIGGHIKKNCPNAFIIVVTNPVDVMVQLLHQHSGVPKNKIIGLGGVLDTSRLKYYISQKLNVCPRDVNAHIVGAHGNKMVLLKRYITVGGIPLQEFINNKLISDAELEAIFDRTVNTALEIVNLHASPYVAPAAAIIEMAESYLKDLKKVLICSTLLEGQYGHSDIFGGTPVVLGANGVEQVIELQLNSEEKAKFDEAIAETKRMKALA
QUANTITY_NAME: inhibition (%)
Lab book: enter the figure in %, no units written.

CC[C@H]1CN2CC[C@H]1C[C@H]2[C@H](O)c1cc(-c2cccc(Cl)c2)nc2ccc(OC)cc12 | 6
Cc1ccc(-n2nc(C)c3c2NC(=O)CSC3c2ccsc2)cc1 (centres undefined) | 2
CC1(CCCCN2CC=C(c3c[nH]c4ccccc34)CC2)C(=O)Nc2ccccc21 (centres undefined) | 4
Cc1cc(C2CCCCN2C)ccc1-c1ccc(C(=O)N2CCc3cc4c(cc32)C2(CCN(C)CC2)CO4)cc1 (centres undefined) | 1
N[C@@H](CCN1CCC(c2cccc(O)c2)CC1)Cc1ccc(F)c(F)c1 | -3
CC[C@H]1CN2CC[C@H]1C[C@H]2[C@H](O)c1ccnc2ccc(C#N)cc12 | 5
CC(Cc1ccc(OCCOc2ccccc2)cc1)NCC(O)c1cccc(C(F)(F)F)c1 (centres undefined) | -6
O=C(NC1CCC(CN2CCC(c3c[nH]c4ccccc34)CC2)CC1)c1cc(-c2ccccc2Cl)n(-c2cccc(Cl)c2)n1 (centres undefined) | 4
CCCCCc1cc(O)c2c(c1)OC(C)(C)CC2C1=CCN(Cc2ccccc2)CC1 (centres undefined) | -5
CCCN(CC(=O)NCCc1ccccc1)c1ccc(C#N)c2ccccc12 | -5

Lab book: inhibition of O=C(/C=C/c1ccc(Cl)c(Cl)c1)NCc1ccc(CN2CCC(c3c[nH]c4ccccc34)CC2)cc1 noted as -2

Lab book: inhibition of OC1(c2ccc(Cl)c(C(F)(F)F)c2)CCN(CCOC2c3ccccc3CSc3ccc(Cl)cc32)CC1 (centres undefined) noted as 6

Lab book: inhibition of COC(=O)/C=C/c1ccc(CC(C)NCC(O)c2cccc(Br)c2)cc1 (centres undefined) noted as 5

Lab book: inhibition of CN1CC[C@H](N(Cc2ccccc2F)c2ccc(C#N)c(Cl)c2)C1 noted as -6

----------
experiment: growth inhibition of DIPG glioma cells, dose response, cell-based, SU-DIPG-XIII, MIPE4.0, CellTiter-Glo, qHTS (AID 1347061); conditions: SU-DIPG-XIII viability, CellTiter-Glo ATP luminescence;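 note: cells exposed to compound for 48 hours before readout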
Records with an inconclusive call do not appear. The source made the active and inactive calls. No cut-off is given here; in the data, nearly all actives have AC50 up to about 37 µM.
Hello, when you answer, please use one of the following outcomes: Y for active, N for inactive

COC[C@H]1OC(=O)c2coc3c2[C@@]1(C)C1=C(C3=O)C2CCC(=O)[C@@]2(C)C[C@H]1OC(C)=O (stereo partly drawn) | Y

Data request: Please let me know the test result on file for O=C1CCC[C@@H]2[C@H]3CCCN4CCC[C@@H](CN12)[C@@H]34 .
Data returned: N

Data request: Please let me know the test result on file for N#C[C@H](O[C@@H]1O[C@H](CO[C@@H]2O[C@H](CO)[C@@H](O)[C@H](O)[C@H]2O)[C@@H](O)[C@H](O)[C@H]1O)c1ccccc1 .
Data returned: Y

Data request: Please let me know the test result on file for Cc1[nH]nc2ccc(-c3cncc(OC[C@@H](N)Cc4c[nH]c5ccccc45)c3)cc12 .
Data returned: Y

Data request: Please let me know the test result on file for CC(C)[C@]12O[C@H]1[C@@H]1O[C@]13[C@]1(O[C@H]1C[C@H]1C4=C(CC[C@@]13C)C(=O)OC4)[C@@H]2O .
Data returned: N

Data request: Please let me know the test result on file for CN(C)[C@@H]1C(=O)C(C(N)=O)=C(O)[C@@]2(O)C(=O)C3=C(O)c4c(O)cccc4[C@@](C)(O)[C@H]3[C@H](O)[C@@H]12 .
Data returned: N

Data request: Please let me know the test result on file for O=P1(NCCCl)OCCCN1CCCl (stereo not drawn) .
Data returned: N

Data request: Please let me know the test result on file for CC(C)N[C@@H]1CCn2c(=O)[nH]c3cccc(c32)[C@H]1O .
Data returned: Y

----------
assay: modifiers of HSF1 nuclear foci, imaging, Selleck Cancer Library (AID 1347162); settings: human cells, at 10 µM; measured here: HSF1 foci SSMD mean
We label by threshold. Values of SSMD strictly beneath 1 are TRUE. Values of 1 and up are FALSE.

The examples below pair each entry with its known result.
CC1=C2C[C@H]3[C@@H](CC=C4C[C@@H](O)CC[C@@]43C)[C@@H]2CC[C@]12O[C@@H]1C[C@H](C)CN[C@H]1[C@H]2C | FALSE
C=C1C[C@@H]2[C@H](CC[C@]3(C)C(=O)CC[C@@H]23)[C@@]2(C)C=CC(=O)C=C12 | FALSE
CCC1(c2ccc(N)cc2)CCC(=O)NC1=O (configuration not stated) | FALSE
CC(O)(CS(=O)(=O)c1ccc(F)cc1)C(=O)Nc1ccc(C#N)c(C(F)(F)F)c1 (configuration not stated) | FALSE
CN(C)CCN(C)CCc1ccc(Cl)c(Cl)c1 | FALSE

Data request: Please let me know if CC(C)[C@]12O[C@H]1[C@@H]1O[C@]13[C@]1(O[C@H]1C[C@H]1C4=C(CC[C@@]13C)C(=O)OC4)[C@@H]2O shows SSMD below 1.
Data returned: TRUE

Data request: Please let me know if Cn1cc(C2=C(c3cn(C4CCN(Cc5ccccn5)CC4)c4ccccc34)C(=O)NC2=O)c2ccccc21 shows SSMD below 1.
Data returned: TRUE

----------
Overview of reported normalised cell number across a group of compounds:
assay: differential killing of epithelial or mesenchymal cells, primary screen, imaging, PC-3E GFP, TEM4-18 mCherry, co-culture (AID 1345086); settings: imaging cell counts, measured here: mesenchymal TEM4-18 mCherry cell survival, at 1 µM;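 note: cells exposed to compound for 72 h before imaging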
Give the figure only, with no unit attached.

C[C@@H]1CC[C@@]2(NC1)OC1CC3C4CC=C5C[C@@H](O)CC[C@]5(C)C4CC[C@]3(C)C1[C@@H]2C (stereo not given in full) | 1.13

Lab book: normalised cell number of Cc1ccc(N=CN(C)C=Nc2ccc(C)cc2C)c(C)c1 noted as 1.26

Lab book: normalised cell number of CC[C@H]1CN2CCC1C[C@@H]2[C@H](O)c1ccnc2ccc(OC)cc12 (stereo not given in full) noted as 1.07

Lab book: normalised cell number of COc1cc2c(cc1OC)-c1c(oc3c4c(ccc3c1=O)OC(C(C)C)C4)CO2 (stereo not given) noted as 0.92

----------
experiment: hESC survival regulators, cell-based (AID 493140); conditions: human embryonic stem cell survival screen; stronger effect = higher value;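 note: cells exposed to compounds for four days before counting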
Overview of reported survival across a group of compounds:
Give the figure only, with no unit attached.

In the examples that follow, each entry is paired with its recorded survival.
CC(C)c1c(CN(C)C(C)Cc2ccccc2)n(C)n(-c2ccccc2)c1=O (centres undefined) | 1.08
CC1=CC(=O)C2=C(C)C[C@H](O)[C@@H]3[C@H](OC(=O)[C@H]3C)[C@@H]12 | 7.92
COC(=O)C1=CCCN(C)C1 | 7.67
CN1C[C@H](CNC(=O)OCc2ccccc2)C[C@@H]2c3cccc4c3c(cn4C)C[C@H]21 | 2.67
CN(C)[C@@H]1C(=O)C(C(N)=O)=C(O)[C@@]2(O)C(=O)C3=C(O)c4c(O)cccc4[C@@](C)(O)[C@H]3[C@H](O)[C@@H]12 | 14.3
C[N+]1(C)C2CCC1CC(OC(=O)C(CO)c1ccccc1)C2 (centres undefined) | 5.08
Cc1c(C(=O)c2cccc3ccccc23)c2cccc3c2n1[C@H](CN1CCOCC1)CO3 | 106
CC(=O)NC1CCSC1=O (centres undefined) | 5.75

Lab book: survival of NC(=O)CN1CCCC1=O noted as 17.8

Lab book: survival of CO[C@@H]1C=C2CCN(C)[C@@H]2C2c3cc4c(cc3C(=O)OC21)OCO4 (some centres undefined) noted as 4.75
